Molecular target: Rat brain protein farnesyltransferase (Rattus norvegicus, UniProt Q02293+Q04631)
Construct: Rat brain protein farnesyltransferase activity is measured; from tissue; host or cells: rat brain
Assay: % inhibition of farnesylation, scintillation proximity assay with biotin-K Ras B fragment
Assay type: biochemical
Conditions: Table 2; 1 × 10^-6 M
Assign % inhibition at 1 × 10^-6 M to each entry below.
Quick note: give the figure in %, leave out the unit.

IN: # query: % inhibition at 1 × 10^-6 M of entry CSCC[C@H](NC(=O)c1ccc(CN(CC(C)C)C(CC2CCCCC2)CC2CCCCC2)cc1-c1ccccc1C)C(=O)O [Example 908]
OUT: 88

IN: # query: % inhibition at 1 × 10^-6 M of entry CSCC[C@H](NC(=O)c1ccc(/C=C/CC(O)c2ccc3ccccc3c2)cc1-c1ccccc1C)C(=O)O (stereo partly shown) [Example 474]
OUT: 92

IN: # query: % inhibition at 1 × 10^-6 M of entry CSCC[C@H](NC(=O)c1ccc(CN(CCC2CCCCC2)C(=O)N(C)C)cc1-c1ccccc1C)C(=O)O [Example 610]
OUT: 94

IN: # query: % inhibition at 1 × 10^-6 M of entry CSCC[C@H](NC(=O)c1ccc(CCc2ccc3ccccc3c2)cc1-c1ccccc1C)C(=O)O [Example 468]
OUT: 96

---

Target: Rat brain protein farnesyltransferase (Rattus norvegicus, UniProt Q02293+Q04631)
Construct: Rat brain protein farnesyltransferase activity is measured; from tissue; host or cells: rat brain
Assay: % inhibition of farnesylation, scintillation proximity assay with biotin-K Ras B fragment
Type: biochemical
Settings: Table 1; 1 × 10^-5 M
Assign % inhibition at 1 × 10^-5 M to each entry below.
Provide the measurement as a number trailed by its unit.

IN: # query: % inhibition at 1 × 10^-5 M of entry CSCC[C@H](NC(=O)c1ccc(CNc2cccc(Oc3ccccc3)c2)cc1-c1ccccc1)C(=O)O
OUT: 48%

IN: # query: % inhibition at 1 × 10^-5 M of entry CSCC[C@H](NC(=O)c1ccc(CNc2ccc(I)cc2)cc1-c1ccccc1)C(=O)O
OUT: 71%

IN: # query: % inhibition at 1 × 10^-5 M of entry CSCC[C@H](NC(=O)c1ccc(CNc2cc[nH]n2)cc1-c1ccccc1)C(=O)O
OUT: 86%

---

Assign inhibition at 0.1 µM to each entry below.
Target: Rat brain protein farnesyltransferase (Rattus norvegicus, UniProt Q02293+Q04631)
Construct: Rat brain protein farnesyltransferase activity is measured; from tissue; host or cells: rat brain
Assay: % inhibition of farnesylation, scintillation proximity assay with biotin-K Ras B fragment
Format: biochemical
Settings: read-out: % inhibition at 1 × 10^-7 M
Method: The ability of the compounds of the invention to inhibit protein farnesyltransferase or protein geranylgeranyltransferase can be measured according to the method of Moores, et al., J. Biol. Chem. 266: 14603 (1991) or the method of Vogt, et al., J. Biol. Chem. 270:660-664 (1995). […] In addition, in vitro inhibition of protein farnesyltransferase may be measured by the following procedure. […] The % inhibition of protein farnesyltransferase was determined for representative compounds of the invention.
Counter-ions that a name gives are not always drawn.
Quick note: give the figure in %, leave out the unit.

IN: # query: inhibition at 0.1 µM of entry CSCC[C@H](NC(=O)c1ccc(COCc2cc3ccccc3o2)cc1-c1ccccc1C)C(=O)O [Example 533, lithium salt]
OUT: 91

IN: # query: inhibition at 0.1 µM of entry CSCC[C@H](NC(=O)c1ccc(COCc2ccc(-c3cccc([N+](=O)[O-])c3)o2)cc1-c1ccccc1C)C(=O)O [Example 440, lithium salt]
OUT: 92

IN: # query: inhibition at 0.1 µM of entry CCCCC(OCc1ccc(C(=O)N[C@@H](CCSC)C(=O)O)c(-c2ccccc2C)c1)c1ccco1 (stereo partly drawn) [Example 825, lithium salt]
OUT: 79

IN: # query: inhibition at 0.1 µM of entry COc1ccccc1COCc1ccc(C(=O)N[C@@H](CCSC)C(=O)O)c(-c2ccccc2C)c1 [Example 931, lithium salt]
OUT: 98

IN: # query: inhibition at 0.1 µM of entry CSCC[C@H](NC(=O)c1ccc(COCc2ccc(-c3ccc(C(F)(F)F)cc3)o2)cc1-c1ccccc1C)C(=O)O [Example 445, lithium salt]
OUT: 94

IN: # query: inhibition at 0.1 µM of entry CSCC[C@H](NC(=O)c1ccc(COCc2ccc(-c3ccc(SC)cc3)o2)cc1-c1ccccc1C)C(=O)O [Example 447, lithium salt]
OUT: 91

IN: # query: inhibition at 0.1 µM of entry CSCC[C@H](NC(=O)c1ccc(COCCc2ccc3ccccc3c2)cc1-c1ccccc1C)C(=O)O [Example 593, lithium salt]
OUT: 86

IN: # query: inhibition at 0.1 µM of entry CSCC[C@H](NC(=O)c1ccc(COCc2ccc(C(C)C)cc2)cc1-c1ccccc1C)C(=O)O [Example 940, lithium salt]
OUT: 92

IN: # query: inhibition at 0.1 µM of entry CSCC[C@H](NC(=O)c1ccc(COCc2ccccc2)cc1-c1ccccc1C)C(=O)O [Example 571, lithium salt]
OUT: 88

IN: # query: inhibition at 0.1 µM of entry CSCC[C@H](NC(=O)c1ccc(COCc2cnc(C(C)(C)C)s2)cc1-c1ccccc1C)C(=O)O [Example 895, lithium salt]
OUT: 92

IN: # query: inhibition at 0.1 µM of entry CSCC[C@H](NC(=O)c1ccc(COCCc2ccco2)cc1-c1ccccc1C)C(=O)O [Example 531, lithium salt]
OUT: 74

IN: # query: inhibition at 0.1 µM of entry CSCC[C@H](NC(=O)c1ccc(COCc2ccc(C)cc2)cc1-c1ccccc1C)C(=O)O [Example 579, lithium salt]
OUT: 92

IN: # query: inhibition at 0.1 µM of entry CSCC[C@H](NC(=O)c1ccc(COCC2CCCCC2)cc1-c1ccccc1C)C(=O)O [Example 585, lithium salt]
OUT: 96

IN: # query: inhibition at 0.1 µM of entry CSCC[C@H](NC(=O)c1ccc(COC(Cc2ccccc2)c2ccco2)cc1-c1ccccc1C)C(=O)O (stereo partly drawn) [Example 534, lithium salt]
OUT: 84

IN: # query: inhibition at 0.1 µM of entry COc1cccc(-c2ccc(COCc3ccc(C(=O)N[C@@H](CCSC)C(=O)O)c(-c4ccccc4C)c3)o2)c1 [Example 442, lithium salt]
OUT: 88

---

Target: Rat brain protein farnesyltransferase (Rattus norvegicus, UniProt Q02293+Q04631)
Construct: Rat brain protein farnesyltransferase activity is measured; from tissue; host or cells: rat brain
Experiment: % inhibition of farnesylation, scintillation proximity assay with biotin-K Ras B fragment
Format: biochemical
Conditions: Table 4; 1 × 10^-8 M
endpoint: % inhibition at 1 × 10^-8 M (%)
Quick note: give the figure in %, leave out the unit.

IN: I'm curious: which % inhibition at 1 × 10^-8 M was measured for CSCC[C@H](NC(=O)c1ccc(CN(Cc2ccccc2)c2cccc([N+](=O)[O-])c2)cc1-c1ccccc1C)C(=O)[O-].[Li+] tested on Rat brain protein farnesyltransferase (Rattus norvegicus, UniProt Q02293+Q04631)?
OUT: 88

IN: I'm curious: which % inhibition at 1 × 10^-8 M was measured for CCSC[C@H](CCc1ccccc1)NCc1ccc(C(=O)N[C@@H](CCSC)C(=O)O)c(-c2ccccc2C)c1 tested on Rat brain protein farnesyltransferase (Rattus norvegicus, UniProt Q02293+Q04631)?
OUT: 92

IN: I'm curious: which % inhibition at 1 × 10^-8 M was measured for CSCC[C@H](NC(=O)c1ccc(CN(C)CCC2CCCCC2)cc1-c1ccccc1C)C(=O)[O-].[Li+] tested on Rat brain protein farnesyltransferase (Rattus norvegicus, UniProt Q02293+Q04631)?
OUT: 91

IN: I'm curious: which % inhibition at 1 × 10^-8 M was measured for CSCC[C@H](NC(=O)c1ccc(CN(Cc2ccc3c(c2)OCO3)c2cncnc2)cc1-c1ccccc1C)C(=O)O tested on Rat brain protein farnesyltransferase (Rattus norvegicus, UniProt Q02293+Q04631)?
OUT: 91

IN: I'm curious: which % inhibition at 1 × 10^-8 M was measured for CC[C@H](CC1CCCCC1)NCc1ccc(C(=O)N[C@@H](CCSC)C(=O)O)c(-c2ccccc2C)c1 tested on Rat brain protein farnesyltransferase (Rattus norvegicus, UniProt Q02293+Q04631)?
OUT: 92

IN: I'm curious: which % inhibition at 1 × 10^-8 M was measured for CSCC[C@H](NC(=O)c1ccc(CN[C@@H](CC2CCCCC2)C(=O)N2CCCCC2)cc1-c1ccccc1C)C(=O)O tested on Rat brain protein farnesyltransferase (Rattus norvegicus, UniProt Q02293+Q04631)?
OUT: 92

---

Target: Rat brain protein farnesyltransferase (Rattus norvegicus, UniProt Q02293+Q04631)
Construct: Rat brain protein farnesyltransferase activity is measured; from tissue; host or cells: rat brain
Experiment: % inhibition of farnesylation, scintillation proximity assay with biotin-K Ras B fragment
Type: biochemical
Settings: Table 2; 1 × 10^-6 M
endpoint: % inhibition at 1 × 10^-6 M (%)
Quick note: give the figure in %, leave out the unit.

IN: # query: % inhibition at 1 × 10^-6 M of entry CCc1nnc(NCc2ccc(C(=O)N[C@@H](CCSC)C(=O)O)c(-c3ccccc3C)c2)s1
OUT: 87

IN: # query: % inhibition at 1 × 10^-6 M of entry CSCC[C@H](NC(=O)c1ccc(CCc2ccccc2-c2ccccc2)cc1-c1ccccc1C)C(=O)[O-].[Li+]
OUT: 96

IN: # query: % inhibition at 1 × 10^-6 M of entry CSCC[C@H](NC(=O)c1ccc(/C=C/CCc2ccccc2)cc1-c1ccccc1C)C(=O)O
OUT: 97

IN: # query: % inhibition at 1 × 10^-6 M of entry CSCC[C@H](NC(=O)c1ccc(NC(=O)C2=C(C(F)(F)F)C=CNC2)cc1-c1ccccc1)C(=O)O
OUT: 98

IN: # query: % inhibition at 1 × 10^-6 M of entry CSCC[C@H](NC(=O)c1ccc(C=CCc2ccc3ccccc3c2)cc1-c1ccccc1C)C(=O)O
OUT: 93

Taken from patent US6204293A.
